- TARGET DESC: UniProtKB P08183
- Sequence (P08183 whole entry): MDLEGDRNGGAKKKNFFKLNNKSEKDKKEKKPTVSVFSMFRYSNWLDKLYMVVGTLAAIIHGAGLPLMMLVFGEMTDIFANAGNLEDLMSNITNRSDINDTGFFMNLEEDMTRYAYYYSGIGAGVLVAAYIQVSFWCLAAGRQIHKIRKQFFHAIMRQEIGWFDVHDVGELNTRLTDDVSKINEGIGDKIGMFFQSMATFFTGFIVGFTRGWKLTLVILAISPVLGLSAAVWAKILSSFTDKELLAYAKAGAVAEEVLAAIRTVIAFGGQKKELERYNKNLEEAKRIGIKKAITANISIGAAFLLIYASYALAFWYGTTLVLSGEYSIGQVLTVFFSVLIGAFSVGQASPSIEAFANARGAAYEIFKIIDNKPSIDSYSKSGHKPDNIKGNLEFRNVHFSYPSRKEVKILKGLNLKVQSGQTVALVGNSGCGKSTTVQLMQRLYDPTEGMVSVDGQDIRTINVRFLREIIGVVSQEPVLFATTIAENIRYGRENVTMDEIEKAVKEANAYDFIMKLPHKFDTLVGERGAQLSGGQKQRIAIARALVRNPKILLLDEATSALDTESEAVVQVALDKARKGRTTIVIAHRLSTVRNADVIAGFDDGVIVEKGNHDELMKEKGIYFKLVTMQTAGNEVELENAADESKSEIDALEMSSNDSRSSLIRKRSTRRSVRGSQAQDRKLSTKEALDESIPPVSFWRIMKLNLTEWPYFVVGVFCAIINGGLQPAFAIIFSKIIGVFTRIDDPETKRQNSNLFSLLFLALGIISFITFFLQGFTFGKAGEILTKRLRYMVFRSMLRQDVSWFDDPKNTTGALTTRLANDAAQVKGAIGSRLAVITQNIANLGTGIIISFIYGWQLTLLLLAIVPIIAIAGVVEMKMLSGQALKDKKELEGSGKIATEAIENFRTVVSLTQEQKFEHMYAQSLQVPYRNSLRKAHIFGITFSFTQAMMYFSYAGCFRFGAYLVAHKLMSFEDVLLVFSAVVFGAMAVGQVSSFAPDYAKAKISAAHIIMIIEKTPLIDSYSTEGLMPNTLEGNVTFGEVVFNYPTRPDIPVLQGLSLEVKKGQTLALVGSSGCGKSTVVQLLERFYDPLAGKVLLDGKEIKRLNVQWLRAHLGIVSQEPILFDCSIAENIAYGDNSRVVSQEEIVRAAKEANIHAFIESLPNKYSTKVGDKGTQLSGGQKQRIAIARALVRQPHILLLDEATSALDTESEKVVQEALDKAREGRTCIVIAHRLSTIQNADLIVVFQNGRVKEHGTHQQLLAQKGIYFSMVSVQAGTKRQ
- ASSAY INFO: TP_TRANSPORTER: drug resistance in MDR1-expressing MCF7 cells
- Format: functional, cell-based
REPORTED PROPERTY: Activity

Past entries and their recorded results:
* CC[C@]1(O)C[C@H]2CN(CCc3c([nH]c4ccccc34)[C@@](C(=O)OC)(c3cc4c(cc3OC)N(C=O)[C@H]3[C@@](O)(C(=O)OC)[C@H](OC(C)=O)[C@]5(CC)C=CCN6CC[C@]43[C@@H]65)C2)C1 | substrate [+]
* COc1cccc2c1C(=O)c1c(O)c3c(c(O)c1C2=O)C[C@@](O)(C(=O)CO)C[C@@H]3O[C@H]1C[C@H](N)[C@H](O)[C@H](C)O1 | substrate [+]
* CC[C@@]1(O)C(=O)OCc2c1cc1n(c2=O)Cc2cc3ccccc3nc2-1 | is not a substrate [-]
* O=c1[nH]c(=O)n([C@@H]2O[C@H](CO)[C@@H](O)[C@H]2O)cc1F | is not a substrate [-]

Let us examine a further case.
Task: Provide measured Activity on UniProtKB P08183 for CC(=O)O[C@H]1C(=O)[C@@]2(C)[C@H]([C@H](OC(=O)c3ccccc3)[C@]3(O)C[C@H](OC(=O)[C@H](O)[C@@H](NC(=O)c4ccccc4)c4ccccc4)C(C)=C1C3(C)C)[C@]1(OC(C)=O)CO[C@@H]1C[C@@H]2O please.
Output: substrate [+]
